Readings of melting point for the listed molecules
reported-property: melting point

INSERT INTO measurements (smiles_code, observed_value) VALUES
  ('N#CCCSc1[nH]nc(-c2ccc(Cl)cc2)c1-c1ccncc1', '205.7 to 206.5 °C'),
  ('CSC(SC)=C(C(=O)c1ccc(Cl)cc1)c1ccncc1', '87.6 to 88.2 °C'),
  ('Cc1ccc(-c2n[nH]c(N3CCN(C)CC3)c2-c2ccncc2)cc1C', '270.9 to 272.7 °C'),
  ('Clc1cccc(-c2n[nH]cc2-c2ccnc(NCCc3ccccc3)c2)c1', '185 to 186 °C'),
  ('COc1ccc(CS(=O)(=O)c2[nH]nc(-c3ccc(F)cc3)c2-c2ccncc2)cc1', '241.9 to 242 °C'),
  ('CN(C)CCCNC(=O)CSc1[nH]nc(-c2ccc(Cl)cc2)c1-c1ccncc1', '168.8 to 169.5 °C'),
  ('Cc1ccc(S(=O)(=O)Nc2[nH]nc(-c3ccc(Cl)cc3)c2-c2ccncc2)cc1', '284.3 to 284.4 °C'),
  ('COc1[nH]nc(-c2ccc(Cl)cc2)c1-c1ccncc1', '265.3 °C'),
  ('CSc1[nH]nc(-c2ccc(Cl)cc2)c1-c1ccncc1', '250.2 °C');

* * *

# Test system: TNF-α
# assay-remarks: Rat assay: LPS-challenged rats, serum TNF-α by ELISA
# Assay type: in vivo
# details: Rattus norvegicus, po, Table 8, dose 5.0 mg/kg; read-out: Rat LPS Assay % Inhibition
Where a name gives a salt, the structure may show the parent alone.
reported-property: inhibition in vivo at 5 mg/kg (%)

INSERT INTO results (molecule, reported_property, observed_value) VALUES
  ('C#CCN1CCN(c2n[nH]c(-c3ccc(Cl)cc3)c2-c2ccncc2)CC1', 'inhibition in vivo at 5 mg/kg', 69),
  ('CN1CCC(Nc2n[nH]c(-c3ccc(Cl)cc3)c2-c2ccncc2)CC1', 'inhibition in vivo at 5 mg/kg', 57),
  ('Fc1ccc(-c2[nH]nc(CN3CCNCC3)c2-c2ccncc2)cc1', 'inhibition in vivo at 5 mg/kg', 53),
  ('Clc1ccc(-c2[nH]nc(NC3CCNCC3)c2-c2ccncc2)cc1 [Example A-332, trihydrochloride, monohydrate]', 'inhibition in vivo at 5 mg/kg', 25);

* * *

# study-system: human p38 kinase alpha (Homo sapiens, UniProt Q16539)
# Construct: The coding region of the human p38a cDNA was obtained by PCR-amplification from RNA isolated from the human monocyte cell line THP.1; GST (N); made in house; host or cells: E. coli DH10B
# Sequence (Q16539 whole entry): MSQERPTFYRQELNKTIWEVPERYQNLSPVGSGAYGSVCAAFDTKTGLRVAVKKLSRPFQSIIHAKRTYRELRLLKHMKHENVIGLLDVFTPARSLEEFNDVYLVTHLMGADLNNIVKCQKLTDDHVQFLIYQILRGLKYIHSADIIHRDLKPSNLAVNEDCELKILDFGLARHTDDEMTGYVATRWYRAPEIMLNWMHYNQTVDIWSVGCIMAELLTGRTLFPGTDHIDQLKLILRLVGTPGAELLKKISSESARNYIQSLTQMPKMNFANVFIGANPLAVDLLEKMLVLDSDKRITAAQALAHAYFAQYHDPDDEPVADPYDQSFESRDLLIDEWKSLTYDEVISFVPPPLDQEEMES
# assay-remarks: p38 kinase in vitro assay, phosphorylation of biotinylated PHAS-I with gamma 32P-ATP
# Format: biochemical
# details: read-out: P38 alpha kinase IC50
reported-property: IC50 (nM)

INSERT INTO assay_data (compound, observed_value) VALUES
  ('CC(C)C(=O)N[C@H](C)c1[nH]nc(-c2ccc(F)cc2)c1-c1ccncc1', 750),
  ('Cc1c(-c2ccncc2)c(-c2ccc(F)cc2)nn1CC(=O)NCCc1ccc(Oc2ccccc2)cc1', 17),
  ('O=S(=O)(NCc1[nH]nc(-c2ccc(F)cc2)c1-c1ccncc1)c1ccc(-c2ccccn2)s1', 370),
  ('CC(NC(=O)c1cc(F)cc(F)c1)c1[nH]nc(-c2ccc(F)cc2)c1-c1ccncc1 (stereo not shown)', 62);

* * *

Recorded measurements of melting point, one per entry
reported-property: melting point

INSERT INTO measurements (compound, reported_property, observed_value) VALUES
  ('CN(C)c1nccc(-c2cn[nH]c2-c2ccc(F)cc2)n1 [Example A-301]', 'melting point', '155 to 156 °C'),
  ('C=CCSc1[nH]nc(-c2ccc(Cl)cc2)c1-c1ccncc1 [Example A-479]', 'melting point', '207.3 to 208.1 °C'),
  ('Cc1cc(-c2n[nH]cc2-c2ccncc2)ccc1Cl [Example A-199]', 'melting point', '198.17 °C'),
  ('O=C(C(=C1SCS1)c1ccncc1)c1cccc(Br)c1 [Example A-393]', 'melting point', '159.6 to 159.7 °C'),
  ('Cc1cc(-c2[nH]nc(N3CCN(C)CC3)c2-c2ccncc2)ccc1Br [Example A-420]', 'melting point', '294.7 °C (dec.)');

* * *

# study-system: human p38 kinase alpha (Homo sapiens, UniProt Q16539)
# Construct: The coding region of the human p38a cDNA was obtained by PCR-amplification from RNA isolated from the human monocyte cell line THP.1; GST (N); made in house; host or cells: E. coli DH10B
# assay-remarks: p38 kinase in vitro assay, phosphorylation of biotinylated PHAS-I with gamma 32P-ATP
# Assay type: biochemical
# details: @ 1.0 uM; read-out: P38 alpha kinase % inhib @ conc.
Entries and their inhibition at 1 µM
reported-property: inhibition at 1 µM (%)

INSERT INTO results (smiles_code, study_system, output_unit, observed_value) VALUES
  ('COc1ccc(S(=O)(=O)NCc2[nH]nc(-c3ccc(F)cc3)c2-c2ccncc2)cc1OC', 'human p38 kinase alpha (Homo sapiens, UniProt Q16539)', '%', 43),
  ('COc1ccc(C(=O)NCc2[nH]nc(-c3ccc(F)cc3)c2-c2ccncc2)cc1OC', 'human p38 kinase alpha (Homo sapiens, UniProt Q16539)', '%', 72),
  ('Cc1onc(-c2c(F)cccc2Cl)c1C(=O)NCc1[nH]nc(-c2ccc(F)cc2)c1-c1ccncc1', 'human p38 kinase alpha (Homo sapiens, UniProt Q16539)', '%', 93),
  ('COC(=O)c1ccccc1S(=O)(=O)NCc1[nH]nc(-c2ccc(F)cc2)c1-c1ccncc1', 'human p38 kinase alpha (Homo sapiens, UniProt Q16539)', '%', 61),
  ('C=CCNC(=O)NCc1[nH]nc(-c2ccc(F)cc2)c1-c1ccncc1', 'human p38 kinase alpha (Homo sapiens, UniProt Q16539)', '%', 43),
  ('COc1ccc(NC(=O)NCc2[nH]nc(-c3ccc(F)cc3)c2-c2ccncc2)c(OC)c1', 'human p38 kinase alpha (Homo sapiens, UniProt Q16539)', '%', 40),
  ('CCCCCCCC(=O)NCc1[nH]nc(-c2ccc(F)cc2)c1-c1ccncc1', 'human p38 kinase alpha (Homo sapiens, UniProt Q16539)', '%', 90),
  ('COC(=O)CC(=O)NCc1[nH]nc(-c2ccc(F)cc2)c1-c1ccncc1', 'human p38 kinase alpha (Homo sapiens, UniProt Q16539)', '%', 96);

* * *

# study-system: human GST-p38 kinase alpha (Homo sapiens)
# Construct: The coding region of the human p38a cDNA was obtained by PCR-amplification from RNA isolated from the human monocyte cell line THP.1; made in house; host or cells: E. coli DH10B
# assay-remarks: p38 kinase in vitro assay, second format, phosphorylation of EGFRP with 33P-ATP
# Type: biochemical
# details: Table 10, 10% DMSO; @ 1.0 hour; read-out: p38α Kinase Assay IC50
reported-property: IC50 (µM)

INSERT INTO assay_data (compound, reported_relation, observed_value) VALUES
  ('Fc1ccc(-c2n[nH]c(S)c2-c2ccncc2)cc1 [Example A-454]', '=', 8.41),
  ('COc1ccc(C(=O)C(=C2SCS2)c2ccncc2)cc1Cl [Example A-397]', '=', 30),
  ('N#CCCSc1[nH]nc(-c2ccc(Cl)cc2)c1-c1ccncc1 [Example A-483]', '=', 0.3),
  ('Sc1[nH]nc(-c2ccc(Cl)cc2)c1-c1ccncc1 [Example A-453]', '=', 10.2),
  ('Cc1ccc(C(=O)C(=C2SCS2)c2ccncc2)cc1 [Example A-400]', '=', 4.77),
  ('COc1ccc(CSC(SCc2ccc(OC)cc2)=C(C(=O)c2ccc(F)cc2)c2ccncc2)cc1 [Example A-450]', '>', 100),
  ('N#CCCCSc1[nH]nc(-c2ccc(Cl)cc2)c1-c1ccncc1 [Example A-475]', '=', 0.28),
  ('CN1CCN(c2n[nH]c(-c3ccc(I)cc3)c2-c2ccncc2)CC1 [Example A-417]', '=', 0.19),
  ('O=C(C(=C1SCS1)c1ccncc1)c1ccc(Cl)cc1 [Example A-390]', '=', 15.1),
  ('O=C(O)CSc1[nH]nc(-c2ccc(Cl)cc2)c1-c1ccncc1 [Example A-461]', '=', 30.6),
  ('Cc1cc(C(=O)C(=C2SCS2)c2ccncc2)ccc1Cl [Example A-391]', '=', 4.83),
  ('Clc1ccc(-c2n[nH]c(SC3CCNCC3)c2-c2ccncc2)cc1 [Example A-459]', '=', 0.027),
  ('CN1CCC(Oc2[nH]nc(-c3ccc(Cl)cc3)c2-c2ccncc2)CC1 [Example A-448]', '=', 0.084),
  ('Clc1ccc(-c2n[nH]c(OC3CCOC3)c2-c2ccncc2)cc1 (stereo not shown) [Example A-443]', '=', 0.47),
  ('CN(C)c1ccc(C(=O)C(=C2SCS2)c2ccncc2)cc1 [Example A-402]', '=', 28.9),
  ('Clc1ccc(-c2n[nH]c(SCC3OCCO3)c2-c2ccncc2)cc1 [Example A-473]', '=', 0.17),
  ('CNC(=O)CSc1[nH]nc(-c2ccc(Cl)cc2)c1-c1ccncc1 [Example A-462]', '=', 1.66),
  ('CN1CCN(c2[nH]nc(-c3ccc(OC(F)(F)F)cc3)c2-c2ccncc2)CC1 [Example A-411]', '=', 3.37),
  ('Clc1ccc(-c2n[nH]c(SCCN3CCCC3)c2-c2ccncc2)cc1 [Example A-460]', '=', 1.84);
